Assay system: human c-Kit (SPR) (human, UniProt P10721 26-520, limits assumed)
Sequence (P10721 26-520 limits assumed): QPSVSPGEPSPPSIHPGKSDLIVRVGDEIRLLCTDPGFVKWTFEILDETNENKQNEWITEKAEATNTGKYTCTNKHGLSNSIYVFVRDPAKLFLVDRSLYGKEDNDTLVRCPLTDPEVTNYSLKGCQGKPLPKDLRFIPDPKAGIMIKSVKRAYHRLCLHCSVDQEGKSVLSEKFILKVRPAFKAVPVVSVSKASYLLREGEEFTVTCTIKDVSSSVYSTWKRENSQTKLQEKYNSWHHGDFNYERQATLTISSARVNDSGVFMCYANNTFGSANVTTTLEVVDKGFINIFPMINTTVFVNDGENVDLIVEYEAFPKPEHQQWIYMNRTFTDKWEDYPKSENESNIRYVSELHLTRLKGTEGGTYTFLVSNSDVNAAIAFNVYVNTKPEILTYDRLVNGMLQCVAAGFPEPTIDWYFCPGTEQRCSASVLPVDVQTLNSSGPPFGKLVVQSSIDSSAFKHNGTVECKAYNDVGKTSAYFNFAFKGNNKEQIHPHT
Test protocol: SPR, single-cycle kinetics, Human C-kit
Reported metric: kon (M⁻¹ s⁻¹)
Number only, in M⁻¹ s⁻¹; omit the unit.

q: Item FJ2156_MH1_A x F6_12B huIgG1 KIH (bispecific antibody, V domains shown, also called MH1_A/F6.12_B) VH 1: EVQLVQSGAEVKKPGASVKVSCKASGYTFTDYYMNWVRQAPGQGLEWMGRIYPGSGNTYYAQKFQDRVTMTRDTSTSTVYMELSSLRSEDTAVYYCARGVYYYDYWGQGTLVTVSS VH 2: QVQLVQSGAEVKKPGESLKISCKGSGYRFASNWIGWVRQMPGKGLQWMGEIYPGDSNTRYSPSFQGQVTISADKSISTAYLQWSSLKASDTAMYYCARKDYYYGIMDVWGQGTTVTVSS VL: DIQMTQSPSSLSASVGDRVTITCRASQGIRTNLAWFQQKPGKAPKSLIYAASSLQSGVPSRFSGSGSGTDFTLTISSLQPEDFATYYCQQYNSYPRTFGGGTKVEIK has what recorded kon?
a: 201000
